Test system: SF268 (glioblastoma) tumor cell line
Experimental protocol: MTT proliferation assay, SF268
Assay type: cell-based
Reported conditions: Homo sapiens, SF-268, 120 h, 5 days
pIC50: −log10 of the molar value.

# Molecule, pIC50
measured = [
    ("O=C(O)c1ccc(N2CCN(CCCn3c4c(n[n+]3[O-])C(=O)c3ccccc3C4=O)CC2)cc1 [Compound 101]", 6.48),
]
